# MEASURED ON: HLA-B*27:05
# EXPERIMENTAL DETAILS: IEDB peptide-MHC binding, purified MHC/competitive/fluorescence; filed as Kd, often an IC50 or EC50 that approximates it; bounds were set here for any values at or beyond the usual limits of such assays
# CONDITION NOTES: source organism: Escherichia coli 536
VALUE TYPE: Kd (nM)

1) FRAQTKGKV = 86.7

---

# MEASURED ON: HLA-B*15:17
# EXPERIMENTAL DETAILS: IEDB peptide-MHC binding, purified MHC/competitive/fluorescence; filed as Kd, often an IC50 or EC50 that approximates it; bounds were set here for any values at or beyond the usual limits of such assays
# CONDITION NOTES: source organism: Pleistophora sp. LS
VALUE TYPE: Kd

1) VELQIGWTV = ≥ 20 µM

---

# MEASURED ON: HLA-A*02:01
# EXPERIMENTAL DETAILS: IEDB peptide-MHC binding, purified MHC/direct/fluorescence; filed as Kd, often an IC50 or EC50 that approximates it; bounds were set here for any values at or beyond the usual limits of such assays
# CONDITION NOTES: source organism: Escherichia coli O157:H7
pKd: −log10 of the molar value.
Let's look at some sequences and their measured pKd.
VALUE TYPE: pKd

1. AQRPAKYSY = ≤ 4.70
2. RFDEAIINY = ≤ 4.70
3. SMYQLMITI = 6.08

---

# MEASURED ON: HLA-B*15:17
# EXPERIMENTAL DETAILS: IEDB peptide-MHC binding, purified MHC/competitive/fluorescence; filed as Kd, often an IC50 or EC50 that approximates it; bounds were set here for any values at or beyond the usual limits of such assays
# CONDITION NOTES: source organism: Homo sapiens
We begin with a simple list: items and their reported Kd.
VALUE TYPE: Kd

1. VTENKKIQY = ≥ 20 µM
2. FQWHEAMFL = ≥ 20 µM

---

# MEASURED ON: HLA-B*45:06
# EXPERIMENTAL DETAILS: IEDB peptide-MHC binding, purified MHC/competitive/fluorescence; filed as Kd, often an IC50 or EC50 that approximates it; bounds were set here for any values at or beyond the usual limits of such assays
# CONDITION NOTES: source organism: human gammaherpesvirus 4
VALUE TYPE: Kd

1. TEMYIMYAM = ≥ 5 µM

---

# MEASURED ON: HLA-A*33:01
# EXPERIMENTAL DETAILS: IEDB peptide-MHC binding, purified MHC/competitive/radioactivity; filed as Kd, often an IC50 or EC50 that approximates it; bounds were set here for any values at or beyond the usual limits of such assays
# CONDITION NOTES: source organism: Lymphocytic choriomeningitis virus (strain Armstrong)
pKd: −log10 of the molar value.
VALUE TYPE: pKd

1) TLMSIVSSLH = ≤ 4.15

---

# MEASURED ON: HLA-A*69:01
# EXPERIMENTAL DETAILS: IEDB peptide-MHC binding, purified MHC/competitive/fluorescence; filed as Kd, often an IC50 or EC50 that approximates it; bounds were set here for any values at or beyond the usual limits of such assays
# CONDITION NOTES: source organism: Salmonella enterica subsp. enterica serovar Typhi
pKd: −log10 of the molar value.
VALUE TYPE: pKd

1. KTVRYWHRF = ≤ 4.70
